Reference source for all entries: patent US8901118B2

Tested on: BCR-KIT BaF3 cells (Homo sapiens, UniProt P10721)
Construct: fused on or other part: P11274 (Breakpoint cluster region protein)
Sequence (P10721 589-937): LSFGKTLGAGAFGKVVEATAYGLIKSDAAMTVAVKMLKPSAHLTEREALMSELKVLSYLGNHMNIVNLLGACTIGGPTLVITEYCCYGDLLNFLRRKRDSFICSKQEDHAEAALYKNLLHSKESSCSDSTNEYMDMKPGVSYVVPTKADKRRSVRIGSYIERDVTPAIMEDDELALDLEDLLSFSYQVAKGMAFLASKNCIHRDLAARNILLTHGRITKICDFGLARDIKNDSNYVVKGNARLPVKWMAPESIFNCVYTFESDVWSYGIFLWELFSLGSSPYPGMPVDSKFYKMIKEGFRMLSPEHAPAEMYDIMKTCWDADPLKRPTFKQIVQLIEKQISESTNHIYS
Assay procedure: BaF3 BCR-KIT cell proliferation assay (ATPlite)
Measurement parameters: read-out: Inhibition of Cell Proliferation IC50, BCR/BaF3 Kit
Catalogue of IC50 values

For reference, reported IC50 for COc1ccc(Nc2ccc(C(=O)c3c[nH]c4ncnc(NC(C)(C)C)c34)c(F)n2)cn1 [Compound P-4055] stands at > 1000 nM

Others:
Measured IC50, Cc1ccc(Nc2ccc(C(=O)c3c[nH]c4ncnc(NC5CCCCC5)c34)c(F)n2)cn1 [Compound P-4111] : < 1000 nM

Just so you know, measured IC50 for COc1ccc(Nc2ccc(C(=O)c3c[nH]c4ncnc(NCC5CC5)c34)c(F)n2)cn1 [Compound P-4067] came out at < 100 nM

What the record says about CCc1ccc(Nc2ccc(C(=O)c3c[nH]c4ncc(C)cc34)c(F)n2)cn1 [Compound P-3049] : IC50 is < 100 nM

Short answer for CCc1ccc(Nc2ncc(Cc3c[nH]c4ncc(C)cc34)cn2)cc1 [Compound P-3025] : IC50 was < 10 nM

For this molecule ( CCOc1ccc(Nc2ccc(C(=O)c3c[nH]c4ncnc(OC)c34)c(F)n2)cn1 [Compound P-4024] ), measured IC50 is < 1000 nM

The molecule listed as CNc1ncnc2[nH]cc(C(=O)c3ccc(Nc4cncc(OC)c4)nc3F)c12 [Compound P-4108] shows IC50 equal to > 1000 nM

According to the records, this molecule O=C(c1ccc(NC2CCC(F)(F)CC2)nc1Cl)c1c[nH]c2ncnc(NCC(F)(F)F)c12 [Compound P-4057] displays IC50 of > 1000 nM

----------
pIC50: −log10 of the molar value.
Test system TrkA kinase (Homo sapiens), pIC50 listed for each of the compounds.

Field pIC50 (TrkA kinase (Homo sapiens)), entry Cc1cnc2[nH]cc(Cc3cnc(Nc4cc(C5CC5)n[nH]4)nc3)c2c1 [Compound P-3032] : < 6.00

Reading of pIC50 for CCc1ccc(Nc2ccc(C(=O)c3c[nH]c4ncnc(NCC5CC5)c34)c(F)n2)cn1 [Compound P-4118] with TrkA kinase (Homo sapiens): > 8.00

TrkA kinase (Homo sapiens) data for CCn1cc(Nc2ccc(Cc3c[nH]c4ncnc(C)c34)c(F)n2)cn1 [Compound P-4013] ; its pIC50: > 6.00

---
Lab note: compound CCN1CCC(Nc2ncnc3[nH]cc(C(=O)c4ccc(Nc5ccc(OC)nc5)nc4F)c23)CC1 [Compound P-4074] tested on TrkA kinase (Homo sapiens); recorded pIC50 was > 8.00

Reported pIC50 (TrkA kinase (Homo sapiens)) for entry CCCNc1ncnc2[nH]cc(C(=O)c3ccc(Nc4cncc(OC)c4)nc3F)c12 [Compound P-4105] is > 7.00

With TrkA kinase (Homo sapiens) as the test system, Nc1ncnc2[nH]cc(C(=O)c3ccc(NC4CCC(F)(F)CC4)nc3Cl)c12 [Compound P-4046] showed pIC50 of > 6.00

Note to self: pIC50 of COc1ncnc2[nH]cc(Cc3ccc(Nc4ccc(C5CC5)nc4)nc3F)c12 [Compound P-4004] with TrkA kinase (Homo sapiens) was > 7.00

Summary line: O=C(c1ccc(NC2CCC(F)(F)CC2)nc1Cl)c1c[nH]c2ncnc(NC3CC3)c12 [Compound P-4059] , TrkA kinase (Homo sapiens), reported pIC50 = > 7.00

----------
Tested on: BCR-NTRK1 BaF3 cells (Homo sapiens, UniProt P04629)
Construct: fused on or other part: P11274 (Breakpoint cluster region protein)
Sequence (P04629 510-781): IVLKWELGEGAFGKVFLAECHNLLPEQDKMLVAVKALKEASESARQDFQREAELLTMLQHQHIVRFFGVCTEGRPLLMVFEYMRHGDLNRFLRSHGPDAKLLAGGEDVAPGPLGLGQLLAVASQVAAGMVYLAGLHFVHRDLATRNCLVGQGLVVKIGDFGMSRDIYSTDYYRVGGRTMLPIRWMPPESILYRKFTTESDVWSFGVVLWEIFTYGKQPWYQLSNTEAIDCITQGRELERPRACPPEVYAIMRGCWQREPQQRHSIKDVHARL
Assay procedure: BaF3 BCR-NTRK1 cell proliferation assay (ATPlite)
Measurement parameters: read-out: Inhibition of Cell Proliferation IC50, BCR/BaF3 TrkA
pIC50: −log10 of the molar value.
Measured metric: pIC50

Here is how some molecules turned out for pIC50.
What the record says about CCOc1ccc(Nc2ccc(C(=O)c3c[nH]c4ncnc(C5CC5)c34)c(F)n2)cn1 : pIC50 is > 7.00

For reference, reported pIC50 for CCCNc1ncnc2[nH]cc(C(=O)c3ccc(Nc4ccc(OC)nc4)nc3F)c12 stands at > 8.00

// pIC50 value for CC(C)Nc1ncnc2[nH]cc(C(=O)c3ccc(NC4CCCCC4)nc3F)c12 : > 7.00

get_value(item= COc1ncnc2[nH]cc(Cc3ccc(Nc4ccc(C5CC5)nc4)nc3F)c12 , readout=pIC50) returns > 8.00

According to the records, this molecule CC(C)=CNc1ncnc2[nH]cc(C(=O)c3ccc(NC4CCC(F)(F)CC4)nc3Cl)c12 displays pIC50 of < 6.00

New cases:
Please fill in: pIC50 reported for CC(C)(O)CNc1ncnc2[nH]cc(C(=O)c3ccc(Nc4ccc(C5CC5)nc4)nc3F)c12 = > 6.00

Recorded result, FC1(F)CCC(Nc2ncc(Cc3c[nH]c4ncc(Cl)cc34)cn2)CC1 , pIC50: > 5.00

Per the record, Clc1cnc2[nH]cc(Cc3cnc(NC4CCC4)nc3)c2c1 has pIC50 of < 5.00

----------
Tested on: BCR-KIT BaF3 cells (Homo sapiens)
Construct: fused on or other part: P11274 (Breakpoint cluster region protein)
Assay procedure: BaF3 BCR-KIT cell proliferation assay (ATPlite)
Measurement parameters: read-out: Inhibition of Cell Proliferation IC50, BCR/BaF3 Kit
Measured metric: IC50

Reference set (3 entries):
Entry CCCNc1ncnc2[nH]cc(C(=O)c3ccc(Nc4cncc(OC)c4)nc3F)c12 [Compound P-4105] under BCR-KIT BaF3 cells (Homo sapiens) had IC50 of > 1 µM

Reported IC50 (BCR-KIT BaF3 cells (Homo sapiens)) for entry O=C(c1cnc(NC2CCC(F)(F)CC2)c(F)c1)c1c[nH]c2ncnc(NC3CC3)c12 [Compound P-4053] is < 1 µM

Reading of IC50 for CCNc1ncnc2[nH]cc(C(=O)c3cnc(NC4CCC(F)(F)CC4)c(F)c3)c12 [Compound P-4051] with BCR-KIT BaF3 cells (Homo sapiens): > 1 µM

Further cases:
The recorded IC50 with BCR-KIT BaF3 cells (Homo sapiens) for CNc1ncnc2[nH]cc(C(=O)c3ccc(Nc4ccc(C5CC5)nc4)nc3F)c12 [Compound P-4094] was < 0.1 µM

Here COc1ccc(Nc2ccc(Cc3c[nH]c4ncnc(C)c34)c(F)n2)cn1 [Compound P-4002] was tested on BCR-KIT BaF3 cells (Homo sapiens), and its IC50 came to < 1 µM

Tested system BCR-KIT BaF3 cells (Homo sapiens); IC50 recorded for CCCNc1ncnc2[nH]cc(C(=O)c3ccc(Nc4ccc(OC)nc4)nc3F)c12 [Compound P-4068] was < 0.1 µM

BCR-KIT BaF3 cells (Homo sapiens) data for CNc1ncnc2[nH]cc(C(=O)c3ccc(NC4CCCCC4)nc3Cl)c12 [Compound P-4110] ; its IC50: < 1 µM

Short answer on BCR-KIT BaF3 cells (Homo sapiens) for Cc1cnc2[nH]cc(Cc3cnc(Nc4ccc(C(O)(C(F)(F)F)C(F)(F)F)cc4)nc3)c2c1 [Compound P-3031] , IC50: < 0.01 µM

IC50 for BCR-KIT BaF3 cells (Homo sapiens) with input CCc1ccc(Nc2ccc(C(=O)c3c[nH]c4ncnc(NC)c34)c(F)n2)cn1 [Compound P-4124] equals < 0.1 µM

Short answer on BCR-KIT BaF3 cells (Homo sapiens) for Cc1ccc(Nc2ccc(C(=O)c3c[nH]c4ncnc(NCC5CC5)c34)c(F)n2)cn1 [Compound P-4113] , IC50: < 1 µM

----------
Tested on: BCR-NTRK2 BaF3 cells (Homo sapiens)
Construct: fused on or other part: P11274 (Breakpoint cluster region protein)
Sequence (Q16620 538-807): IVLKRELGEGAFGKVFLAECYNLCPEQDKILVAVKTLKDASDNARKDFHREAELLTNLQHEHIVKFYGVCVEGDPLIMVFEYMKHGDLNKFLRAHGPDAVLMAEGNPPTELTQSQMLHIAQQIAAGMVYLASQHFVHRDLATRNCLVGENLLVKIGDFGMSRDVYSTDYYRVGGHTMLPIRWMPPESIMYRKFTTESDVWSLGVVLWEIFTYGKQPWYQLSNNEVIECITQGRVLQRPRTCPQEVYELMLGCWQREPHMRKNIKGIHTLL
Assay procedure: BaF3 BCR-NTRK2 cell proliferation assay (ATPlite)
Type: cell-based
Measurement parameters: read-out: Inhibition of Cell Proliferation IC50, BCR/BaF3 TrkB
Measured metric: IC50

Record excerpt, results attached:
Hey, BCR-NTRK2 BaF3 cells (Homo sapiens) data for CCOc1ccc(Nc2ccc(C(=O)c3c[nH]c4ncnc(C5CC5)c34)c(F)n2)cn1 : IC50 came out at < 10 nM

Lab note: molecule COc1ccc(Nc2ccc(C(=O)c3c[nH]c4ncnc(C5CC5)c34)c(F)n2)cn1 tested on BCR-NTRK2 BaF3 cells (Homo sapiens); recorded IC50 was < 10 nM

Form field, IC50 with BCR-NTRK2 BaF3 cells (Homo sapiens), item Fc1nc(NC2CCC(F)(F)CC2)ccc1Cc1c[nH]c2ncnc(NCC(F)(F)F)c12 : < 100 nM

COc1ccc(Nc2ccc(C(=O)c3c[nH]c4ncnc(NC(C)(C)C)c34)c(F)n2)cn1 on BCR-NTRK2 BaF3 cells (Homo sapiens) gives IC50 = < 10 nM

Response field IC50 (BCR-NTRK2 BaF3 cells (Homo sapiens)) for item COCCCNc1ncnc2[nH]cc(C(=O)c3ccc(Nc4ccc(OC)nc4)nc3F)c12 : < 10 nM

Entry COc1ccc(Nc2ccc(C(=O)c3c[nH]c4ncnc(NCC(F)(F)F)c34)c(F)n2)cn1 : IC50 on BCR-NTRK2 BaF3 cells (Homo sapiens) = < 10 nM

IC50 value, target or system BCR-NTRK2 BaF3 cells (Homo sapiens), for O=C(c1ccc(Nc2ccc(C3CC3)nc2)nc1F)c1c[nH]c2ncnc(NC3CC3)c12 : < 10 nM

The observed IC50 for Cc1ccc(Nc2ccc(C(=O)c3c[nH]c4ncnc(C5CC5)c34)c(F)n2)cn1 when tested with BCR-NTRK2 BaF3 cells (Homo sapiens) stands at < 10 nM

Reading of IC50 for Clc1cnc2[nH]cc(Cc3cnc(Nc4ccccc4Cl)nc3)c2c1 with BCR-NTRK2 BaF3 cells (Homo sapiens): > 10000 nM

With BCR-NTRK2 BaF3 cells (Homo sapiens) as the test system, CNc1ncnc2[nH]cc(C(=O)c3ccc(Nc4ccc(C5CC5)nc4)nc3F)c12 showed IC50 of < 10 nM

More entries:
Noted IC50 for CCc1ccc(Nc2ccc(C(=O)c3c[nH]c4ncnc(NC5CC5)c34)c(F)n2)cn1 , tested on BCR-NTRK2 BaF3 cells (Homo sapiens): < 10 nM

Item COc1ccc(Nc2ccc(Cc3c[nH]c4ncc(C)cc34)c(F)n2)cn1 ; assay system BCR-NTRK2 BaF3 cells (Homo sapiens); IC50 reported as < 100 nM
